Test system: Escherichia coli
Experiment: Antibacterial activity against Escherichia coli MB2884 by broth microdilution technique
Assay type: functional
// reported MIC per item
Record the value in µg/mL, omitting the unit from your answer.

The cases that follow already have their MIC on record.
[
  {
    "COMPOUND": "CC[C@H]1OC(=O)[C@H](C)[C@@H](O[C@H]2C[C@@](C)(OC)[C@@H](O)[C@H](C)O2)[C@H](C)[C@@H](O[C@@H]2O[C@H](C)C[C@H](N(C)C)[C@H]2O)[C@](C)(O)C[C@@H](C)N(C)C[C@H](C)[C@@H](O)[C@]1(C)O [L-701677]",
    "EXPERIMENTAL_TARGET": "Escherichia coli",
    "MEASUREMENT_UNIT": "µg/mL",
    "RECORDED_VALUE": 1
  },
  {
    "COMPOUND": "CC[C@H]1OC(=O)[C@H](C)[C@@H](O[C@H]2C[C@@](C)(OC)[C@@H](O)[C@H](C)O2)[C@H](C)[C@@H](O[C@@H]2O[C@H](C)C[C@H](N(C)C)[C@H]2O)[C@](C)(O)C[C@@H](C)CN(C)[C@H](C)[C@@H](O)[C@]1(C)O [AZITHROMYCIN]",
    "EXPERIMENTAL_TARGET": "Escherichia coli",
    "MEASUREMENT_UNIT": "µg/mL",
    "RECORDED_VALUE": 1
  },
  {
    "COMPOUND": "CC[C@H]1OC(=O)[C@H](C)[C@@H](O[C@H]2C[C@@](C)(OC)[C@@H](N)[C@H](C)O2)[C@H](C)[C@@H](O[C@@H]2O[C@H](C)C[C@H](N(C)C)[C@H]2O)[C@](C)(O)C[C@@H](C)N(C)C[C@H](C)[C@@H](O)[C@]1(C)O",
    "EXPERIMENTAL_TARGET": "Escherichia coli",
    "MEASUREMENT_UNIT": "µg/mL",
    "RECORDED_VALUE": 0.13
  }
]

Let's switch to this compound now.
Query :: # return recorded MIC for input CC[C@H]1OC(=O)[C@H](C)[C@@H](O[C@H]2C[C@@](C)(OC)[C@@H](O)[C@H](C)O2)[C@H](C)[C@@H](O[C@@H]2O[C@H](C)C[C@H](N(C)C)[C@H]2O)[C@](C)(O)C[C@@H](C)C(=O)[C@H](C)[C@@H](O)[C@]1(C)O [ERYTHROMYCIN]
Result :: 32
